target: Sigma non-opioid intracellular receptor 1 (Cavia porcellus, UniProt Q60492); experiment: Displacement of [3H]-(+)-pentazocine from sigma1 receptor in guinea pig brain membranes without cerebellum; details: read-out: Ki(app)
Sequence (Q60492 whole entry): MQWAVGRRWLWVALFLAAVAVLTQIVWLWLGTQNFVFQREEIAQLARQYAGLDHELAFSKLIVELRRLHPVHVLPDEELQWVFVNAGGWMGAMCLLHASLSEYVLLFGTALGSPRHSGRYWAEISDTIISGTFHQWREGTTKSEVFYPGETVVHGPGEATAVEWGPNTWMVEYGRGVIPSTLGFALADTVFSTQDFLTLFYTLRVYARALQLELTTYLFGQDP
measured.attribute: Ki

In: Report Ki for `CC1(C)CCCN(CCCn2ccc3ccccc32)C1` please.
Out: 50.9 nM

In: Item: `CC1(C)CCCN(CCCCC2CCCCC2)C1`
Out: 1.02 nM

In: Let us now turn to `CC1(C)CCCN(CCNc2nc3ccccc3s2)C1`
Out: 566 nM

In: Now consider `CC1(C)CCCN(Cc2cc3ccccc3o2)C1` .
Out: 3690 nM

In: Let us now turn to `CC1(C)CCCN(CCCCN2CCCC(C)(C)C2)C1`
Out: 14.1 nM

In: # repeat for `CC1(C)CCCN(CC(=O)Nc2nc3c(s2)C(=O)CCC3)C1`
Out: > 10000 nM

In: Now try `CC1(C)CCCN(CCNc2nccs2)C1` .
Out: 459 nM

---

experiment: Selectivity ratio of Ki for sigma 2 receptor in rat liver membranes to Ki for sigma 1 receptor in guinea pig brain membranes; type: cell membranes; conditions: Membrane
# strict inequality: Ratio Ki < 6 yields criterion met, everything else yields criterion not met

In: In the record for CC1(C)CCCN(CCCC2CCCc3[nH]ccc32)C1 (racemic) , is Ratio Ki less than 6?
Out: criterion met

In: Now this one: `CC1(C)CCCN(CCCCC2CCCCC2)C1`
Out: criterion not met

In: Next molecule up: `CC1(C)CCCN(CCCn2ccc3ccccc32)C1`
Out: criterion met

In: # repeat for `CC1(C)CCCN(CCCn2nnc3ccccc32)C1`
Out: criterion met

In: Also, `CC1(C)CCCN(CCCCN2CCCC(C)(C)C2)C1` please.
Out: criterion not met

In: // query: CC1(C)CCCN(CCCCC2CCCCc3ccccc32)C1 (racemic)
Out: criterion not met

In: Would you kindly repeat that for `CC1(C)CCCN(CCCc2c[nH]c3ccccc23)C1` ?
Out: criterion met

In: Could you do the same for `CC1(C)CCCN(CCCc2cccc3sccc23)C1` , please?
Out: criterion met

In: Do the same for `CC1(C)CCCN(Cc2cc3ccccc3o2)C1` please
Out: criterion met

In: Now the same for CC1(C)CCCN(CCCC2CCCCc3ccccc32)C1 (racemic)
Out: criterion not met

In: Query CC1(C)CCCN(CCCC2CCCc3sccc32)C1 (racemic) next
Out: criterion not met

In: Next up: `CC1(C)CCCN(CCCc2cccc3occc23)C1`
Out: criterion met

In: Now try `CC1(C)CCCN(CCNc2nccs2)C1` .
Out: criterion not met

---

experiment: Displacement of [3H]DTG from sigma 2 receptor in rat liver membranes; type: cell membranes, Membrane; settings: read-out: Ki(app)
measured.attribute: pKi
Note on pKi: it is the negative log10 of concentration, concentration in mol/L.

In: Item under review: CC1(C)CCCN(CCCCCC2CCCc3sccc32)C1 (racemic) . Reported pKi?
Out: 7.55

In: # repeat for CC1(C)CCCN(CCCC2CCCc3[nH]ccc32)C1 (racemic)
Out: 6.92

In: Also, `Cc1ccccc1NC(=N)Nc1ccccc1C` please.
Out: 7.46

In: Moving on to the next compound: `CC1(C)CCCN(CCCn2nnc3ccccc32)C1`
Out: 5.70

In: Input `CC1(C)CCCN(CCCc2cccc3occc23)C1`
Out: 7.37

In: Then what about the compound `CC1(C)CCCN(CCNc2nc3ccccc3s2)C1` ?
Out: 6.13

In: And the next one, COc1cccc2c1CCCC2CCCCN1CCCC(C)(C)C1 (centres undefined) ?
Out: 6.61

In: Can you handle `CC1(C)CCCN(CCCn2ccc3ccccc32)C1` next?
Out: 6.71

In: Query `CC1(C)CCCN(CCNc2nccs2)C1` next
Out: 5.48

In: Try the compound `CC1(C)CCCN(Cc2cc3ccccc3o2)C1`
Out: 5.74

In: Then what about the compound CC1(C)CCCN(CCCC2CCCCc3ccccc32)C1 (racemic) ?
Out: 7.43

In: Now the same for `CC1(C)CCCN(CCCc2cccc3sccc23)C1`
Out: 7.20

In: Same read-out for `CC1(C)CCCN(CCCCN2CCCC(C)(C)C2)C1` ?
Out: 6.38

---

So I've got a bunch of compounds here, and I need their pKi values.
target: 3-beta-hydroxysteroid-Delta(8),Delta(7)-isomerase (Cavia porcellus); assay: Displacement of [3H]-emopamil from delta(8)-delta(7) sterol isomerase in guinea pig liver membranes; conditions: read-out: Ki(app)
Sequence (Q60490 whole entry): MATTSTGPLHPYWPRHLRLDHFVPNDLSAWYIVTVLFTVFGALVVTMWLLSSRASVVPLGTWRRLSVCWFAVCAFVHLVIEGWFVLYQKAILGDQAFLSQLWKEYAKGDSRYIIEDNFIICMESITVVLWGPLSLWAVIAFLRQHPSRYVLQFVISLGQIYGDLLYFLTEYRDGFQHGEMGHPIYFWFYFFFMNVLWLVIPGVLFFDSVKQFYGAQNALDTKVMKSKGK
// pKi is dimensionless: -log10 of concentration (M)

In: Can you share its pKi? I mean this compound: `CC1(C)CCCN(CCCc2cccc3sccc23)C1`
Out: 9.05

In: // same read-out, input: `CC1(C)CCCN(CCNc2nc3ccccc3s2)C1`
Out: 6.94

In: Now give it for CC1(C)CCCN(CCCCC2CCCCc3ccccc32)C1 (racemic) too.
Out: 8.14

In: Same for `CC1(C)CCCN(CCNc2nccs2)C1`
Out: 5.85

In: Then what about the compound `CC1(C)CCCN(CCCc2cccc3occc23)C1` ?
Out: 8.96

In: What do you get for CC1(C)CCCN(CCCC2CCCc3sccc32)C1 (racemic) ?
Out: 8.51

In: Also `CC1(C)CCCN(CCCCC2CCCCC2)C1` , if possible.
Out: 8.42

In: Same for CC1(C)CCCN(CCCC2CCCCc3ccccc32)C1 (racemic)
Out: 9.70

---

For each entry below, report its log10 Ki value.
target: 3-beta-hydroxysteroid-Delta(8),Delta(7)-isomerase (Cavia porcellus); assay: Displacement of [3H]-emopamil from delta(8)-delta(7) sterol isomerase in guinea pig liver membranes; assay type: cell membranes, Membrane; details: read-out: Ki(app)
log10 Ki, nM

In: Any idea what its log10 Ki is? The compound is `CC1(C)CCCN(CCCCN2CCCC(C)(C)C2)C1`
Out: 2.33

In: Would you kindly repeat that for COc1cccc2c1CCCC2CCCCN1CCCC(C)(C)C1 (stereo unspecified) ?
Out: -0.17

In: Also CC1(C)CCCN(CCCCCC2CCCc3sccc32)C1 (racemic) ?
Out: 0.32

In: Try this compound too: CC(C(O)c1ccc(O)cc1)N1CCC(Cc2ccccc2)CC1 (racemic) [IFENPRODIL]
Out: 1.18

In: Same for CC1(C)CCCN(CCCCC2CCc3ccccc32)C1 (stereo unspecified)
Out: 0.19

---

Give Ki for every item shown.
target: Sigma non-opioid intracellular receptor 1 (Cavia porcellus, UniProt Q60492); assay: Displacement of [3H]-(+)-pentazocine from sigma1 receptor in guinea pig brain membranes without cerebellum; settings: read-out: Ki(app)
Please respond with the number in nM and leave the unit unwritten.

In: Using the record for COc1cccc2c1CCCC2CCCCN1CCCC(C)(C)C1 (stereo unspecified) , report its Ki.
Out: 2.12

In: Follow-up entry: CC1(C)CCCN(CCCCC2CCCCc3ccccc32)C1 (racemic)
Out: 0.14

In: Another compound: CC1(C)CCCN(CCCCC2CCc3ccccc32)C1 (stereo unspecified)
Out: 1.75

In: Now consider `CC1(C)CCCN(CCCc2cccc3sccc23)C1` .
Out: 52

In: Now the same for `CC1(C)CCCN(CCCc2cccc3occc23)C1`
Out: 63.5

In: Next: CC1(C)CCCN(CCCC2CCCCc3ccccc32)C1 (racemic)
Out: 0.38

In: Okay, and CC1(C)CCCN(CCCC2CCCc3[nH]ccc32)C1 (racemic) ?
Out: 27.1

In: Do the same for `CC1(C)CCCN(CCCc2c[nH]c3ccccc23)C1` please
Out: 41.6

In: Then what about the compound `CC1(C)CCCN(CCCn2nnc3ccccc32)C1` ?
Out: 339

In: How about CC1(C)CCCN(CCCC2CCCc3sccc32)C1 (racemic) ?
Out: 0.21
